Assayed System: hPXR (Homo sapiens (Human), UniProt O75469)
Sequence (O75469 whole entry): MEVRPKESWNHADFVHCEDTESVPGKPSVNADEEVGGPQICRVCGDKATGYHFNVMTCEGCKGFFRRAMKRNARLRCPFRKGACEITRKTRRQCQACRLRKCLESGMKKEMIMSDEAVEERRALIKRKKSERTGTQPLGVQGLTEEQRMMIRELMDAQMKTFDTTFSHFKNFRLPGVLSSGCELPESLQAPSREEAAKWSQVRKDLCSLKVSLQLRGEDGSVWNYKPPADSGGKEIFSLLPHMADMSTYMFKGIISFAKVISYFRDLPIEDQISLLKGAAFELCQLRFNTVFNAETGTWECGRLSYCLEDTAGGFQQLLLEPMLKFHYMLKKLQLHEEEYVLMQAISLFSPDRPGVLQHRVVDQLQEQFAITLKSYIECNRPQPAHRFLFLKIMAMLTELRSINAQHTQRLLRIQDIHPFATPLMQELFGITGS
Assay Text: cell-based hPXR inverse agonistic assay
Applied Conditions: read-out: Inverse agonist (IC50/μM); cell-based hPXR inverse agonistic assay
Could you please report measured IC50 for the items listed next?
Report the value in µM with no unit label.

Query CNc1cc(NC(=O)c2nnn(-c3cc(OC)ccc3OC)c2C)cc(C(C)(C)C)c1 [D2] yields IC50 of 0.12

Query CCCCOc1ccc(C(C)(C)C)cc1NC(=O)c1nnn(-c2cc(OC)ccc2OC)c1C [B6] yields IC50 of 0.024

Query COc1ccc(OC)c(-n2nnc(C(=O)Nc3cc(N(C)C)cc(C(C)(C)C)c3)c2C)c1 [D3] yields IC50 of 0.11

Query CCCCN(CCCC)c1cc(NC(=O)c2nnn(-c3cc(OC)ccc3OC)c2C)cc(C(C)(C)C)c1 [D5] yields IC50 of 0.15

Query CCCCOc1ccc(C(C)(C)C)cc1NC(=O)c1nnn(-c2cc(Br)ccc2OC)c1C [H2] yields IC50 of 0.0069

Query CCOc1ccc(C(C)(C)C)cc1NC(=O)c1nnn(-c2cc(OC)ccc2OC)c1C [B4] yields IC50 of 0.077

Query COc1ccc(OC)c(-n2nnc(C(=O)Nc3cccc(N4CCCCC4)c3)c2C)c1 [A12] yields IC50 of 25.8

----------
Assayed System: hPXR (Homo sapiens (Human))
Assay Text: cell-based hPXR agonistic assay
Could you please report measured EC50 for the items listed next?

Query COc1ccc(OC)c(-n2nnc(C(=O)Nc3cc(N4C(=O)CCC4=O)cc(C(C)(C)C)c3)c2C)c1 yields EC50 of > 30 µM

Query COc1ccc(OC)c(-n2nnc(C(=O)Nc3cc(C(C)(C)C)ccc3OCCCCCCCCOc3ccc(C(C)(C)C)cc3NC(=O)c3nnn(-c4cc(OC)ccc4OC)c3C)c2C)c1 yields EC50 of > 30 µM

Query COc1ccc(-n2nnc(C(=O)Nc3cccc(N4CCCC4)c3)c2C)cc1 [E1] yields EC50 of 0.32 µM

Query COc1ccc(Cl)cc1-n1nnc(C(=O)Nc2cc(O)cc(C(C)(C)C)c2)c1C yields EC50 of > 30 µM

Query COc1ccc(OC)c(-n2nnc(C(=O)NS(=O)(=O)c3ccc(C(C)(C)C)cc3)c2C)c1 yields EC50 of 7.46 µM

Query COc1ccc(-n2nnc(C(=O)Nc3ccc(C)cc3)c2C)cc1 yields EC50 of 0.79 µM

Query COc1ccc(-n2nnc(C(=O)Nc3ccc(C(C)(C)C)cc3)c2C)cc1 yields EC50 of 1.44 µM

Query CCCCOc1cc(NC(=O)c2nnn(-c3cc(C)ccc3OC)c2C)cc(C(C)(C)C)c1 yields EC50 of > 30 µM

Query COc1cc(NC(=O)c2nnn(-c3cc(C)ccc3OC)c2C)cc(C(C)(C)C)c1 yields EC50 of > 30 µM

Query CCCC(CC)Oc1ccc(C(C)(C)C)cc1NC(=O)c1nnn(-c2cc(Cl)ccc2OC)c1C (centres unmarked) yields EC50 of > 30 µM

Query CCCCNc1cc(NC(=O)c2nnn(-c3cc(C)ccc3OC)c2C)cc(C(C)(C)C)c1 yields EC50 of > 30 µM

Query CCC[C@H](CC)Oc1ccc(C(C)(C)C)cc1NC(=O)c1nnn(-c2cc(Cl)c(Cl)cc2OC)c1C yields EC50 of > 30 µM

Query COc1ccc(C)cc1-n1nnc(C(=O)Nc2ccc(OC)c(C(C)(C)C)c2)c1C yields EC50 of > 30 µM

Query COc1ccc(-n2nnc(C(=O)Nc3ccc(NC(C)=O)c(C(C)(C)C)c3)c2C)cc1 [E2] yields EC50 of 5.16 µM

Query CCOc1cc(NC(=O)c2nnn(-c3cc(OC)ccc3OC)c2C)nc(OCC)n1 yields EC50 of > 30 µM

Query COc1ccc(OC)c(-n2nnc(C(=O)Nc3cc(NC(=O)CCC(=O)O)cc(C(C)(C)C)c3)c2C)c1 yields EC50 of > 30 µM

Query CCCC(CC)Oc1ccc(C(C)(C)C)cc1NC(=O)c1nnn(-c2cc(C)ccc2OC)c1C (centres unmarked) yields EC50 of 0.0031 µM

Query CCCCOc1cc(NC(=O)c2nnn(-c3cc(OC)ccc3OC)c2C)cc(C(C)(C)C)c1 yields EC50 of > 30 µM

Query CCCCOc1ccc(C(C)(C)C)cc1NC(=O)c1nnn(-c2cc(OC)ccc2Br)c1C yields EC50 of > 30 µM

Query COc1ccc(OC)c(-n2nnc(C(=O)Nc3cc(C(C)(C)C)ccc3OCCCCN3CCN(C)CC3)c2C)c1 yields EC50 of > 30 µM

Query COc1ccc(OC)c(-n2nnc(C(=O)Nc3cc(NCC(=O)OC(C)(C)C)cc(C(C)(C)C)c3)c2C)c1 yields EC50 of > 30 µM

Query CCC[C@H](CC)Oc1ccc(C(C)(C)C)cc1NC(=O)c1nnn(-c2cc(OC)c(OC)cc2OC)c1C yields EC50 of 0.013 µM

Query COc1ccc(OC)c(-n2nnc(C(=O)Nc3cc(OCCCCCCCCI)cc(C(C)(C)C)c3)c2C)c1 yields EC50 of > 30 µM

Query CCCCOc1ccc(NC(=O)c2nnn(-c3cc(OC)ccc3OC)c2C)cc1C(C)(C)C yields EC50 of > 30 µM

Query CCC[C@H](CC)Oc1ccc(C(=O)Nc2ccc(N3CCN(C(C)=O)CC3)cc2)cc1NC(=O)c1nnn(-c2cc(OC)ccc2OC)c1C yields EC50 of > 30 µM

Query COc1ccc(OC)c(-n2nnc(C(=O)Nc3cc(OCCOCCOCCOCCNC(=O)CCCC[C@@H]4SC[C@@H]5NC(=O)N[C@@H]54)cc(C(C)(C)C)c3)c2C)c1 yields EC50 of > 30 µM
